System: K562 CRISPRi cells
Experiment: Constant region variant library pooled growth screen, K562
Assay type: cell-based, human
Settings: sgRNA constant region variants; activity relative to the un-modified constant region cr995
// reported Mean relative activity for each item listed
experimental.readout: Mean relative activity

INSERT INTO results (molecule, experimental_readout, measured_number) VALUES
  ('cr224 (nucleic acid, listed as DNA, chemistry not fully specified) guide: GTTTAAGAGCTAAGCTGGAAACAGCATAGCAAGTTTAAATAAGGCTAGTCCGTTATCAACCTGAAAAGGTGGTATCGAGTCGATACT', 'Mean relative activity', 0.9777),
  ('cr291 (nucleic acid, listed as DNA, chemistry not fully specified) guide: GTTTAAGAGCTAAGCTGGAAACAGCATAGCAAGTTTAAATAAGGCTAGTCCGTTATCAACTTGAAAAAGTGCCATCGAGTCGATGGT', 'Mean relative activity', 0.9321);
